target: recombinant human CD3ε/δ heterodimer (human) (UniProt P07766); assay: ELISA, coated CD3ε/δ
Sequence (P07766 23-126, stated change not applied, chain 1 of 2): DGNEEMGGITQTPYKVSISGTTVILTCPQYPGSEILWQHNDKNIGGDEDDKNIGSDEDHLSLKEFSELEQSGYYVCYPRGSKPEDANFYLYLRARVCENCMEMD
Sequence (P04234 22-105, stated change not applied, chain 2 of 2, further chain): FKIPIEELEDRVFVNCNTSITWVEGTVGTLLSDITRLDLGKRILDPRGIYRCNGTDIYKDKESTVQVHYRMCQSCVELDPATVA
result_type: Absorbance (450 nm)

1. E03 (antibody, human IgG1, lambda, L234A L235A, V domains shown) VH: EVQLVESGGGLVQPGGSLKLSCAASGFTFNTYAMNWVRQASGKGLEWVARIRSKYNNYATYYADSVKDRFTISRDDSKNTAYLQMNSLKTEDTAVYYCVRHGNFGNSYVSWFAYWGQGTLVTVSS VL: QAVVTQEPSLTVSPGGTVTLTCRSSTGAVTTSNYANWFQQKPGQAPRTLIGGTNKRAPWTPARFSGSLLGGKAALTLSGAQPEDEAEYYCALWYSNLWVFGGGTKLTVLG : 0.134
2. C15 (antibody, human IgG1, lambda, L234A L235A, V domains shown) VH: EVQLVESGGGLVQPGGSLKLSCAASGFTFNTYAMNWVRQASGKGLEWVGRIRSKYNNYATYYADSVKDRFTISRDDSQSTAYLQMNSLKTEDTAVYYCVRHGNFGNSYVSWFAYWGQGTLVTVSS VL: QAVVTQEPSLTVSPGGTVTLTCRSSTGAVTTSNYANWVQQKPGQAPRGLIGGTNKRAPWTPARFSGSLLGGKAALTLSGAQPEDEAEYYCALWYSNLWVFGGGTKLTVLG : 2.45
3. D03 (antibody, human IgG1, lambda, L234A L235A, V domains shown) VH: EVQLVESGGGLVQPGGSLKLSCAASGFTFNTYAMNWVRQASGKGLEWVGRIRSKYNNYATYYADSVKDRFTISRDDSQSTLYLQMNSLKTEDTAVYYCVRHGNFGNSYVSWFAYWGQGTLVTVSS VL: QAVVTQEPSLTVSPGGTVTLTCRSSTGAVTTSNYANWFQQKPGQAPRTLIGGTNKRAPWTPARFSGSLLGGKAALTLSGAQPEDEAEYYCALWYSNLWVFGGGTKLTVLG : 0.159
4. E15 (antibody, human IgG1, lambda, L234A L235A, V domains shown) VH: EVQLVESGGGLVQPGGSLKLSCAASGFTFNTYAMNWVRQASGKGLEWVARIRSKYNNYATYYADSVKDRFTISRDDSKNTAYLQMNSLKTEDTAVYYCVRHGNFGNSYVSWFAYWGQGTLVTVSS VL: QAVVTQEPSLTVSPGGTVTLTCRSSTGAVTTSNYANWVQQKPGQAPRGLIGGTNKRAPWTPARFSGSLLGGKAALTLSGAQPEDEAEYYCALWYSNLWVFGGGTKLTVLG : 2.41
5. C13 (antibody, human IgG1, lambda, L234A L235A, V domains shown) VH: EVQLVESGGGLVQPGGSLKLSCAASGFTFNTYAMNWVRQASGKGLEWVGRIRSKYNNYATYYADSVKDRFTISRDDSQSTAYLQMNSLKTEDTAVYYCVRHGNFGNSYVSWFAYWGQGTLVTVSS VL: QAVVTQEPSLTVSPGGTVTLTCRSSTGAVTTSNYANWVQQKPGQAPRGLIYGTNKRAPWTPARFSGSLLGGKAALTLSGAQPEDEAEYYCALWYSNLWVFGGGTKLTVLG : 0.179
6. B07 (antibody, human IgG1, lambda, L234A L235A, V domains shown) VH: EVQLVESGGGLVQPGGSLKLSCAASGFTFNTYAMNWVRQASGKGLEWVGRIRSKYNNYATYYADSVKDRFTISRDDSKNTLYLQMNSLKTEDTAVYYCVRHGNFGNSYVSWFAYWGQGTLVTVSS VL: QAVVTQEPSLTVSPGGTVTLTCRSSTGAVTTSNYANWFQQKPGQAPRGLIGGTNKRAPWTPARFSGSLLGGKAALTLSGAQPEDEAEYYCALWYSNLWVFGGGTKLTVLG : 0.718
7. G12 (antibody, human IgG1, lambda, L234A L235A, V domains shown) VH: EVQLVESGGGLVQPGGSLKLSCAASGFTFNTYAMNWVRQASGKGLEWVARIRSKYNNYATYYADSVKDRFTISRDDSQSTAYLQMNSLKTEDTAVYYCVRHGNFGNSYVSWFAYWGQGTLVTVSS VL: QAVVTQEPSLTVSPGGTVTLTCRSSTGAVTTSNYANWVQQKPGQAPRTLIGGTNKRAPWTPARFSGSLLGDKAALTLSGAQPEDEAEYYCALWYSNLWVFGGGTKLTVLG : 0.085
8. A12 (antibody, human IgG1, lambda, L234A L235A, V domains shown) VH: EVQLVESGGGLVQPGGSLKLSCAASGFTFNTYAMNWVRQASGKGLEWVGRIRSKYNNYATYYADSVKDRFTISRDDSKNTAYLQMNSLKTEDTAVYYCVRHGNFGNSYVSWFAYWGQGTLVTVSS VL: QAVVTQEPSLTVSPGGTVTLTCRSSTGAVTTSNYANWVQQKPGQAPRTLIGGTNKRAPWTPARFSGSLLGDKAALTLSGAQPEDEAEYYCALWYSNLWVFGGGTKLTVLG : 0.097
9. F16 (antibody, human IgG1, lambda, L234A L235A, V domains shown) VH: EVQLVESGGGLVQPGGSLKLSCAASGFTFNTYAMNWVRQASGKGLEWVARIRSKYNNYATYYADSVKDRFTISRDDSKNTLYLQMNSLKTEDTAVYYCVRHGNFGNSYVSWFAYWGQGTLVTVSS VL: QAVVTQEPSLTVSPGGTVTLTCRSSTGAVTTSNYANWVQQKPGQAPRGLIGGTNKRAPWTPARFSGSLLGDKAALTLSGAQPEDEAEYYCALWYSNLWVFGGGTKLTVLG : 2.46
10. G14 (antibody, human IgG1, lambda, L234A L235A, V domains shown) VH: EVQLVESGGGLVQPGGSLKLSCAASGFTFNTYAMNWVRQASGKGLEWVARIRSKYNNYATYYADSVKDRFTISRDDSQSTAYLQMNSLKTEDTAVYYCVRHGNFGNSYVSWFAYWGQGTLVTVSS VL: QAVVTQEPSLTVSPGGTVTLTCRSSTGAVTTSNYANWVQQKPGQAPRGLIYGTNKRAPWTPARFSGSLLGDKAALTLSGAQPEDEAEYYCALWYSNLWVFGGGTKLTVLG : 0.105
